These entries and their values trace back to PubChem BioAssay AID1963966.

# System: 935938-334-R-J1-PDC spheroids with HUVEC/MSC, viability
# method description: Anticancer human tumor 935938-334-R-J1-PDC patient-derived small intestine adenocarcinoma cell line growth inhibition [PI3K]
# run parameters: second compound 0.0316 µM; first compound 0.3 µM; hits give low values
molecules and their reported viability, T/C
Respond with the bare value in %.

>>> measurement("Cn1cnc2c(F)c(Nc3ccc(Br)cc3Cl)c(C(=O)NOCCO)cc21 + Cc1nc(NC(=O)N2CCCC2C(N)=O)sc1-c1ccnc(C(C)(C)C(F)(F)F)c1")
31.1
>>> measurement("Cn1cnc2c(F)c(Nc3ccc(Br)cc3Cl)c(C(=O)NOCCO)cc21 + CC(Nc1ncnc2nc[nH]c12)c1cc2cccc(Cl)c2c(=O)n1-c1ccccc1")
34.5

QUERY: Annotate the molecule Cn1cnc2c(F)c(Nc3ccc(Br)cc3Cl)c(C(=O)NOCCO)cc21 + CC(Nc1ccc2c(c1)OCCn1cc(N3C(=O)OCC3C(F)F)nc1-2)C(N)=O with its measured viability, T/C.
RESULT: 34.3

QUERY: Annotate the molecule Cn1cnc2c(F)c(Nc3ccc(Br)cc3Cl)c(C(=O)NOCCO)cc21 + COc1c(OCCCN2CCOCC2)ccc2c3n(c(=NC(=O)c4cnc(N)nc4)nc12)CCN3 with its measured viability, T/C.
RESULT: 27

* * *

# System: 935938-334-R-J1-PDC spheroids with HUVEC/MSC, viability
# method description: Anticancer human tumor 935938-334-R-J1-PDC cell line growth inhibition [PI3K];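 also: compound exposure lasted seven days before viability was read; percent of vehicle DMSO treated spheroid viability so 100% = untreated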
# run parameters: second compound 0.316 µM; first compound 1 µM; hits give low values
observed property: viability, T/C (%)
Respond with the bare value in %.

Worked examples, 6 compounds total:
>>> measurement("CC(C)NCC(C(=O)N1CCN(c2ncnc3c2C(C)CC3O)CC1)c1ccc(Cl)cc1 (stereo not given) + CC(Nc1ncnc2nc[nH]c12)c1cc2cccc(Cl)c2c(=O)n1-c1ccccc1")
58
>>> measurement("CC1(C)CCC(Nc2ncc(C(F)(F)F)c(-c3c[nH]c4c(P(C)(C)=O)c(C#N)ccc34)n2)CN1 (stereo not given) + COc1c(OCCCN2CCOCC2)ccc2c3n(c(=NC(=O)c4cnc(N)nc4)nc12)CCN3")
22.1
>>> measurement("Cn1nccc1Nc1nccc(-c2ccn(C(CO)c3ccc(Cl)c(F)c3)c(=O)c2)n1 (stereo not given) + Cc1nc(NC(=O)N2CCCC2C(N)=O)sc1-c1ccnc(C(C)(C)C(F)(F)F)c1")
39.3
>>> measurement("CC1(C)CCC(CN2CCN(c3ccc(C(=O)NS(=O)(=O)c4ccc(NCC5CCOCC5)c([N+](=O)[O-])c4)c(Oc4cnc5[nH]ccc5c4)c3)CC2)=C(c2ccc(Cl)cc2)C1 + COc1c(OCCCN2CCOCC2)ccc2c3n(c(=NC(=O)c4cnc(N)nc4)nc12)CCN3")
33.2
>>> measurement("CC1(C)CCC(Nc2ncc(C(F)(F)F)c(-c3c[nH]c4c(P(C)(C)=O)c(C#N)ccc34)n2)CN1 (stereo not given) + CC(Nc1ncnc2nc[nH]c12)c1cc2cccc(Cl)c2c(=O)n1-c1ccccc1")
36.5
>>> measurement("Cn1ncc(Cl)c1-c1cc(C(=O)NC(CN)Cc2cccc(F)c2)sc1Cl (stereo not given) + Cc1nc(NC(=O)N2CCCC2C(N)=O)sc1-c1ccnc(C(C)(C)C(F)(F)F)c1")
45.1

Now examine the next entry.
QUERY: Annotate the compound CC1(C)CCC(Nc2ncc(C(F)(F)F)c(-c3c[nH]c4c(P(C)(C)=O)c(C#N)ccc34)n2)CN1 (stereo not given) + Cc1nc(NC(=O)N2CCCC2C(N)=O)sc1-c1ccnc(C(C)(C)C(F)(F)F)c1 with its measured viability, T/C.
RESULT: 29.6
